Origin of values: paper PMC12040169

experiment: in vitro; details: human, hela cells, % viability
In this section, each of the molecules is paired with its reported viability at 28.5 h, 10 µM.

| molecule | viability at 28.5 h, 10 µM / % |
| --- | --- |
| CC(Cc1ccccn1)NC(=O)Cc1ccc2c(c1)CCCO2 (stereo not drawn) | 95 |
| N#Cc1ccc(C(=O)NCc2ccc(OC3CCNCC3)cc2)cc1 [CBK036358T] | 89.5 |
| CCOC(=O)c1csc(COc2ccccc2Cl)n1 | 113 |

====

assay: in vitro; settings: human, hela cells, % viability
In this section, each of the molecules is paired with its reported viability at 28.5 h, 10 µM.

| molecule | viability at 28.5 h, 10 µM [%] |
| --- | --- |
| O=C(Cn1ncc2cccn2c1=O)Nc1cccc(F)c1 [CBK283702] | 89.8 |
| COc1cc(C(C)c2cc3c(cc2OCC(=O)O)OCO3)cc(OC)c1OC (centres unmarked) [CBK200109] | 90.5 |
| CCc1c(C)sc(NC(=O)C2CCC2)c1C(=O)NCc1cccnc1 [CBK307414] | 115 |
| CC(=O)NC(Cc1c[nH]cn1)C(=O)O (centres unmarked) [CBK261105] | 101 |
| COc1cc(/C=C2\NC(=O)N(Cc3ccc([N+](=O)[O-])cc3)C2=O)ccc1OC(C)C(=O)O (centres unmarked) [CBK265348] | 107 |
| COc1ccc2nc(-c3ccc(F)c(NC(=O)c4ccccc4)c3)cn2n1 [CBK287827] | 110 |
| CC1=NNC(=O)C1Cc1ccc(F)cc1 (centres unmarked) [CBK067755] | 97.4 |
| O=C(O)C1CCCN(C(=O)NCc2cccc(C(F)(F)F)c2)C1 (centres unmarked) [CBK161345] | 94.5 |
| COc1ccc(S(=O)(=O)N(C)CC(=O)O)c2ccccc12 [CBK268459] | 105 |
| O=C(c1ccco1)N1CCN(c2ccc(-c3cccc(Cl)c3Cl)cn2)CC1 [CBK037737] | 95.4 |
| CCC1CCc2c(sc(NC(=O)c3cc(-c4ccc(Cl)s4)nc4ccccc34)c2C(N)=O)C1 (centres unmarked) [CBK262646] | 88.9 |
| CCOc1ccc(-c2nc(N)ncc2Oc2ccc(OC)cc2)c(O)c1 [CBK288105] | 101 |
| COc1ccc(Sc2nc3ccccc3nc2C(F)(F)F)cc1OC [CBK093779] | 85 |
| CN(Cc1ccccc1)c1nccnc1-c1ccc(F)c(Cl)c1 [CBK037997] | 107 |
| COc1ccc(Cl)cc1S(=O)(=O)N1CCC(C(=O)NCc2cccnc2)CC1 [CBK269878] | 93.4 |
| COc1cc(C2C(C(=O)c3ccc(C)o3)=C(O)C(=O)N2Cc2cccnc2)cc(OC)c1OC (centres unmarked) [CBK264933] | 110 |
| Cc1cc(CNC(=O)Nc2ccc(F)c(-n3nnnc3C)c2)n(C)n1 [CBK305525] | 88.4 |
| CC(C)CCc1c(O)nc(SCCN(C)C)[nH]c1=O [CBK263382] | 95.3 |
| Cn1c(=O)n(CC(=O)NCc2cccs2)c2cccnc21 [CBK283907] | 90.3 |
| O=C(CC1CCN(Cc2ccccn2)CC1)NCC1(c2ccccc2)CCCC1 [CBK285959] | 87.4 |
| Cc1cccc(C(C)C)c1NC(=O)C1Cc2ccccc2CN1S(=O)(=O)c1ccc(F)cc1 (centres unmarked) [CBK267992] | 101 |
| Cn1nccc1C1CCN(Cc2ccc(Oc3cnccn3)cc2)CC1 [CBK306400] | 104 |
| O=C(Nc1ccc(-c2nnc(-c3ccco3)o2)cc1)C(c1ccccc1)c1ccccc1 [CBK263452] | 106 |
| O=C(CN1CCn2ccnc2C1)N(Cc1ccccc1F)C1CC1 [CBK303995] | 89.6 |
| COc1nccnc1N1CCN(CCCn2c(=O)[nH]c3ccccc32)CC1 [CBK084226] | 95.8 |
| COCCNc1nc(-c2ccccc2OC)ccc1C(=O)N1CCN(C)CC1 [CBK105950] | 88.7 |
| Cc1ccc(S(=O)(=O)NC(C)C(=O)Nc2cc(-c3nc4ccccc4[nH]3)ccc2C)cc1 (centres unmarked) [CBK110320] | 96.2 |
| Cc1cc2c(cc3c(=O)n(CC(=O)N4CCCCCC4)nc(C)n32)o1 [CBK283591] | 103 |
| CCn1nc(NC(=O)CCn2c(C(F)F)cc3cccnc32)cc1C [CBK285072] | 83.8 |
| O=c1c2ccccc2nc(SCc2cccc3nsnc23)n1-c1ccccc1 [CBK266076] | 82.1 |
| Cc1cc2cc(CNc3cc(-c4ccccc4)ccc3O)c(=O)[nH]c2cc1C [CBK286164] | 82.7 |
| COc1cccc2sc(Nc3nnc(-c4cccs4)o3)nc12 [CBK287473] | 85.4 |
